Molecular target: T1, human CTLA4-Fc (R&D Systems, #7268-CT) (human, UniProt P16410 36-162)
T1 construct: Bought; not shown: Fc part
T1 sequence (P16410 36-162 limits assumed): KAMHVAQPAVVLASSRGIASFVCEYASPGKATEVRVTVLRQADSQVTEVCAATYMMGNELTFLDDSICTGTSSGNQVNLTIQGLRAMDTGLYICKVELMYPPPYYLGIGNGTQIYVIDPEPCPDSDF
Assay: low density antigen binding ELISA, human CTLA4-Fc coated at 1 µg/mL, anti-human kappa-HRP
pEC50: −log10 of the molar value.
Listed below: pEC50 values for each entry.
assayEndpoint: pEC50

[[record]]
binder = "Antibody 2-1 (antibody, V domains shown, Wild-type Fc region; Variable domains are stated for Antibody 2-6, another version of Antibody 2 that differs in the Fc region only; also called version of Antibody 2 having a wild-type Fc region) VL: EIVLTQSPDFQSVTPKEKVTITCSANSALSYMYWYQQKPDQSPKLWVHGTSNLASGVPSRFSGSGSGTDFTLTINSLEAEDAATYYCHHWSNTQWTFGGGTKVEIKR VH: QVQLVQSGAEVKKPGSSVKVSCKASGYTFTNYFMNWVRQAPGQGLEWMGRVDPEQGRADYAEKFKKRVTITADKSTSTAYMELSSLRSEDTAVYYCARRAMDNYGFAYWGQGTLVTVSSA"
assayendpoint = "pEC50"
experimentalresult = 9.36

[[record]]
binder = "Antibody 2-5 (antibody, V domains shown, see m21; also called version of Antibody 2 having S239D, I332E, A330L mutations in the Fc region, and two hinge region mutations) VL: EIVLTQSPDFQSVTPKEKVTITCSANSALSYMYWYQQKPDQSPKLWVHGTSNLASGVPSRFSGSGSGTDFTLTINSLEAEDAATYYCHHWSNTQWTFGGGTKVEIKR VH: QVQLVQSGAEVKKPGSSVKVSCKASGYTFTNYFMNWVRQAPGQGLEWMGRVDPEQGRADYAEKFKKRVTITADKSTSTAYMELSSLRSEDTAVYYCARRAMDNYGFAYWGQGTLVTVSSA"
assayendpoint = "pEC50"
experimentalresult = 9.39

[[record]]
binder = "Antibody 2-3 (antibody, V domains shown, see m21; also called version of Antibody 2 having a S239D mutation, an I332E mutation in the Fc region, and two hinge region mutations) VL: EIVLTQSPDFQSVTPKEKVTITCSANSALSYMYWYQQKPDQSPKLWVHGTSNLASGVPSRFSGSGSGTDFTLTINSLEAEDAATYYCHHWSNTQWTFGGGTKVEIKR VH: QVQLVQSGAEVKKPGSSVKVSCKASGYTFTNYFMNWVRQAPGQGLEWMGRVDPEQGRADYAEKFKKRVTITADKSTSTAYMELSSLRSEDTAVYYCARRAMDNYGFAYWGQGTLVTVSSA"
assayendpoint = "pEC50"
experimentalresult = 9.40

